# SYSTEM TESTED: CDK1/Cyclin B1 (Homo sapiens)
# RUN DESCRIPTION: CDK1/Cyclin B1 Biochemical Assay (TR-FRET), 0.015 mM ATP
# EXPERIMENTAL PARAMETERS: 0.15 μM Rb (Ser780)-biotin substrate, pH7.0, 60 min preincubation, 120 min reaction, room temperature
pIC50: −log10 of the molar value.
MEASURE: pIC50

COMPOUND	pIC50
CC1(NC(=O)O[C@H]2CC[C@@H](c3cc(Nc4ccc5c(c4F)CN(C4COC4)S5(=O)=O)n[nH]3)C2)CC1 (relative stereo) [Example 135]	6.49

[a] CCCNC(=O)O[C@H]1CC[C@@H](c2cc(Nc3ccc4c(c3)CCS(=O)(=O)N4)n[nH]2)C1 (relative stereo) [Example 247]
[b] CC(C)NC(=O)O[C@@H]1CC[C@H](c2cc(Nc3ccc4c(c3)CS(=O)(=O)N4)n[nH]2)C1 (single isomer, unassigned) [Example 7a]
[c] CC(C)NC(=O)O[C@H]1CC[C@@H](c2cc(Nc3ccc4c(c3Cl)CNS4(=O)=O)n[nH]2)C1 (single isomer, unassigned) [Example 38b]
[d] CC(C)NC(=O)O[C@H]1CC[C@@H](c2cc(Nc3ccc4c(c3F)CN(C3CCNC(=O)C3)S4(=O)=O)n[nH]2)C1 (relative stereo) [Example 81]
Put the items in order so that reported pIC50 rises from first to last. # output: labels, in the requested order
d, c, a, b
(d: 6.27, c: 6.55, a: 7.10, b: 7.55)

[P] [2H]C([2H])([2H])C1c2cc(Nc3cc([C@@H]4CC[C@H](OC(=O)NC5(C)CC5)C4)[nH]n3)cc(F)c2N(C([2H])([2H])[2H])S1(=O)=O (relative stereo) [Example 287]
[Q] CC(C)NC(=O)O[C@H]1CC[C@@H](c2cc(Nc3ccc4c(c3O)CNS4(=O)=O)n[nH]2)C1 (relative stereo) [Example 405]
[R] C[C@H]1[C@H](O)CN1C(=O)O[C@H]1CC[C@@H](c2cc(Nc3ccc4c(c3F)CNS4(=O)=O)n[nH]2)C1 (relative stereo) [Example 145]
[S] CC1(NC(=O)O[C@H]2CC[C@@H](c3cc(Nc4ccc5c(c4F)CS(=O)(=O)N5)n[nH]3)C2)CC1 (single isomer, unassigned) [Example 388b]
# desc sort on pIC50 across 4 compounds # output: labels, in the requested order
S, P, R, Q
(S: 7.68, P: 7.11, R: 6.57, Q: 6.19)

[a] CCCNC(=O)O[C@H]1CC[C@@H](c2cc(Nc3ccc4c(c3F)CN(C3CC3)S4(=O)=O)n[nH]2)C1 (racemic) [Example 118]
[b] CC1(NC(=O)O[C@H]2CC[C@@H](c3cc(Nc4ccc5c(c4F)CNS5(=O)=O)n[nH]3)C2)COC1 (single isomer, unassigned) [Example 164b]
Parameter check: reported pIC50 is higher for which label, a or b ? Indicate which entry you chose by stating its label.
b
(b: 6.72, a: 6.46)

* * *

# SYSTEM TESTED: CDK1/Cyclin B1 (Homo sapiens)
# RUN DESCRIPTION: CDK1/Cyclin B1 Biochemical Assay (TR-FRET), 0.015 mM ATP
# EXPERIMENTAL PARAMETERS: 0.15 μM Rb (Ser780)-biotin substrate, pH7.0, 60 min preincubation, 120 min reaction, room temperature
# Experimental: CDK2/Cyclin E1 and CDK1/Cyclin B1 Biochemical Assays Compounds disclosed herein were tested for inhibition of CDK2/Cyclin E1 or CDK1/Cyclin B1 kinase in an assay based on the time-resolved fluorescence-resonance energy transfer (TR-FRET) methodology. […] Plates were incubated at room temperature for 60 minutes, and the TR-FRET signals (ex337 nm, em665 nm/620 nm) were recorded on a PHERAstar FSX plate reader (BMG Labtech). […]
MEASURE: IC50 (nM)

Some molecules with known IC50 results, for comparison:
MOLECULE	IC50, nM
CC(C)NC(=O)O[C@H]1CC[C@@H](c2cc(Nc3cc(F)c4c(c3)CS(=O)(=O)N4C3CC3)n[nH]2)C1 (relative stereo) [Example 288]	152
[2H]C([2H])([2H])C1c2cc(Nc3cc([C@@H]4CC[C@H](OC(=O)N[C@@H](C)CC)C4)[nH]n3)cc(F)c2N(C([2H])([2H])[2H])S1(=O)=O (relative stereo) [Example 286]	174

[I] CC(C)NC(=O)O[C@H]1CC[C@@H](c2cc(Nc3ccc4c(c3)CS(=O)(=O)N4CC3CCC3)n[nH]2)C1 (relative stereo) [Example 211]
[II] CC(C)NC(=O)O[C@H]1CC[C@@H](c2cc(Nc3cc(F)c4c(c3)CNS4(=O)=O)n[nH]2)C1 (relative stereo) [Example 29]
[III] CC1(NC(=O)O[C@H]2CC[C@@H](c3cc(Nc4ccc5c(c4F)CNS5(=O)=O)n[nH]3)C2)CC1 (single isomer, unassigned) [Example 140b]
[IV] O=C(NCCC(F)(F)F)O[C@H]1CC[C@@H](c2cc(Nc3ccc4c(c3F)CNS4(=O)=O)n[nH]2)C1 (single isomer, unassigned) [Example 154b]
Put the items in order so that reported IC50 rises from first to last. # output: labels, in the requested order
III, IV, II, I

* * *

# SYSTEM TESTED: CDK2/Cyclin E1 (Homo sapiens)
# RUN DESCRIPTION: CDK2/Cyclin E1 Biochemical Assay (TR-FRET), 0.060 mM ATP
# EXPERIMENTAL PARAMETERS: 0.15 μM Rb (Ser780)-biotin substrate, pH7.0, 60 min preincubation, 120 min reaction, room temperature
pIC50: −log10 of the molar value.
MEASURE: pIC50

[P] CC(C)NC(=O)O[C@H]1CC[C@@H](c2cc(Nc3ccc4c(c3F)CN(C3CCN(C)C3)S4(=O)=O)n[nH]2)C1 (relative stereo)
[Q] CC1(NC(=O)O[C@H]2CC[C@@H](c3cc(Nc4ccc5c(c4F)CNS5(=O)=O)n[nH]3)C2)CCOC1 (single isomer, unassigned) [Example 162a]
[R] CC1(NC(=O)O[C@H]2CC[C@@H](c3cc(Nc4ccc5c(c4)CCS(=O)(=O)N5)n[nH]3)C2)CC1 (single isomer, unassigned) [Example 249a]
Reorder the records above by pIC50 so that values decrease. # output: labels, in the requested order
R, Q, P

* * *

# SYSTEM TESTED: CDK2/Cyclin E1 (Homo sapiens, UniProt P24941)
# RUN DESCRIPTION: CDK2/Cyclin E1 Biochemical Assay (TR-FRET), 0.060 mM ATP
# EXPERIMENTAL PARAMETERS: 0.15 μM Rb (Ser780)-biotin substrate, pH7.0, 60 min preincubation, 120 min reaction, room temperature
MEASURE: IC50 (nM)

[P] CC1(NC(=O)O[C@H]2CC[C@@H](c3cc(Nc4ccc5c(c4F)CNS5(=O)=O)n[nH]3)C2)CCOC1 (mixture of isomers) [Example 162]
[Q] CC(C)NC(=O)O[C@H]1CC[C@@H](c2cc(Nc3ccc4c(c3F)CN(C[C@@H](N)C(C)(C)C)S4(=O)=O)n[nH]2)C1 (relative stereo)
[R] Cc1nc2c(cc1Nc1cc([C@@H]3CC[C@H](OC(=O)NC(C)C)C3)[nH]n1)CNS2(=O)=O (relative stereo)
[S] COc1cc2c(cc1Nc1cc([C@@H]3CC[C@H](OC(=O)NC(C)C)C3)[nH]n1)S(=O)(=O)NC2 (relative stereo)
Order each entry by recorded IC50, climbing from the minimum. # output: labels, in the requested order
P, R, Q, S

[a] CC(C)NC(=O)O[C@H]1CC[C@@H](c2cc(Nc3ccc4c(c3F)CN(C3CN(C)C3)S4(=O)=O)n[nH]2)C1 (relative stereo)
[b] CN1Cc2c(ccc(Nc3cc([C@@H]4CC[C@H](OC(=O)NC5(C)COC5)C4)[nH]n3)c2F)S1(=O)=O (single isomer, unassigned) [Example 352b]
Parameter check: reported IC50 is higher for which label, a or b ? Indicate which entry you chose by stating its label.
a

* * *

# SYSTEM TESTED: CDK1/Cyclin B1 (Homo sapiens, UniProt P06493)
# Sequence (P06493 whole entry): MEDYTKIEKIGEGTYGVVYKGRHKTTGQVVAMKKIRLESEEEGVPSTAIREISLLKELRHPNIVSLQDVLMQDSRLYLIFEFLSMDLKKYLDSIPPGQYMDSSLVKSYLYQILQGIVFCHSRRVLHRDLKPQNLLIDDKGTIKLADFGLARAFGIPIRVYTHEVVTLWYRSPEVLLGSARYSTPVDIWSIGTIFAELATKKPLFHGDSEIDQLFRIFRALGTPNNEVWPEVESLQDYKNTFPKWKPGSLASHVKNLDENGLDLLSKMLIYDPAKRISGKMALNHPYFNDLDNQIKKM
# Sequence (P14635 whole entry partner): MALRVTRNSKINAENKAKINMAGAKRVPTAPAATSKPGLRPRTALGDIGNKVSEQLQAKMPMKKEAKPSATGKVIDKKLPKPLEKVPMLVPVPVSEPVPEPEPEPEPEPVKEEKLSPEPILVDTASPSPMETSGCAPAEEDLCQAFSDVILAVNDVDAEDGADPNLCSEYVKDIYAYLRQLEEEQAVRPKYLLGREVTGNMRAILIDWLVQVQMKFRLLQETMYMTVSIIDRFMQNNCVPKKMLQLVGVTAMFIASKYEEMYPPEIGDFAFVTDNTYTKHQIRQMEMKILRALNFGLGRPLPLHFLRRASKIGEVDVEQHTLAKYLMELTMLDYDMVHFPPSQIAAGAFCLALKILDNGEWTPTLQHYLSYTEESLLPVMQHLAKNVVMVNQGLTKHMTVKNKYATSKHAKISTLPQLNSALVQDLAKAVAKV
# RUN DESCRIPTION: CDK1/Cyclin B1 Biochemical Assay (TR-FRET), 0.015 mM ATP
# EXPERIMENTAL PARAMETERS: 0.15 μM Rb (Ser780)-biotin substrate, pH7.0, 60 min preincubation, 120 min reaction, room temperature
MEASURE: IC50 (µM)

> print(dat)
                                   molecule  numeric.readout
1  CC(C)NC(=O)O[C@H]1CC[C@@H](c2cc(Nc3ccc4c(c3)CS(=O)(=O)N4CCCO)n[nH]2)C1 (relative stereo)             0.03

[P] CC[C@H](C)NC(=O)O[C@H]1CC[C@@H](c2cc(Nc3ccc4c(c3F)CS(=O)(=O)N4C3CC3)n[nH]2)C1 (relative stereo)
[Q] COCC(C)(C)NC(=O)O[C@H]1CC[C@@H](c2cc(Nc3ccc4c(c3)CS(=O)(=O)N4)n[nH]2)C1 (relative stereo)
Parameter check: reported IC50 is higher for which label, P or Q ? Indicate which entry you chose by stating its label.
P
(P: 0.056 µM, Q: 0.0097 µM)
